- experimental-protocol: circadian clock period modulators, cell-based, LOPAC library, luminescence reporter (AID 2774);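 note: values are relative to mean of DMSO wells on each plate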
- conditions: circadian reporter cells, at 7 µM, actives lie on both sides
Active and inactive are the calls of the source. The rule behind the calls is not given here.
Please go through the items and note down their period change.

Record excerpt, results attached:
                                   compound               result
0  CN1CCc2cc3c(cc2[C@H]1[C@@H]1OC(=O)c2c1ccc1c2OCO1)OCO3    0.03 h (inactive)
1                 N#CC(C#N)=Cc1ccc(O)c(O)c1   -0.18 h (inactive)
2     COc1ccc(Cc2nccc3cc(OC)c(OC)cc23)cc1OC   -0.02 h (inactive)
3  CCCN1CCc2cc(O)cc3c2[C@H]1Cc1ccc(O)c(O)c1-3   0.415 h (inactive)
4  C=CCN1CCC2(C)c3cc(O)ccc3CC1[C@@H]2C (stereo partly specified)  -0.025 h (inactive)
5                                  NC(=O)CI   -0.03 h (inactive)

Below are 8 compounds. Give each one its period change.
1. O=C(O)c1cc[c]([Hg][Cl])cc1
2. Nc1ncnc2c1ncn2C1OC2COP(O)(=S)O[C@@H]2[C@@H]1O (stereo partly specified)
3. C[C@]12CCC3C(CC[C@H]4C[C@H](O)CC[C@]34C)C1CC[C@@H]2C(=O)CO (stereo partly specified)
4. NC1CCc2cc(O)c(O)cc2C1 (stereo unspecified)
5. N[C@@H](Cn1cc(I)c(=O)[nH]c1=O)C(=O)O
6. N[C@@H](Cn1ccc(=O)[nH]c1=O)C(=O)O
7. NC(CP(=O)(O)O)C(=O)O (stereo unspecified)
8. COc1ccccc1N1CCNCC1

1. 0.155 h (inactive)
2. -0.125 h (inactive)
3. 0.065 h (inactive)
4. 0.115 h (inactive)
5. -0.19 h (inactive)
6. 0.095 h (inactive)
7. -0.025 h (inactive)
8. 0.075 h (inactive)

Provide each entry's period change from the list below.
1. NC(Cc1ccc(N(CCCl)CCCl)cc1)C(=O)O (stereo unspecified)
2. COc1ccc2[nH]c3c(c2c1)CCNC3

["0.08 h (inactive)", "-0.105 h (inactive)"]

====

- experimental-protocol: inhibitors of mitochondrial cytochrome c release, biochemical, purified mitochondria (AID 1603);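 note: mouse liver mitochondria challenged with calcium chloride; signal normalized to the plate average as 100%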
- conditions: stronger effect = lower value
Mark Met for cytochrome c release ratio under 1, Not met if at or over.

                                   compound  classification
0                        CNC(C)(C)Cc1ccccc1         Not met
1  CC(C)(O)[C@@H]1[C@H]2OC(=O)[C@@H]1[C@]1(O)C[C@H]3O[C@]34C(=O)O[C@H]2[C@]14C             Met
2  CCCCCc1cc(O)c2c(c1)OC(C)(C)c1ccc(C)cc1-2         Not met
3  OC1CCCCC1N1CCC(c2ccccc2)CC1 (configuration not stated)         Not met
4  Oc1ccc2c3c1OC1[C@@H](O)CC[C@@]4(O)[C@@H](C2)N(CC2CCC2)CC[C@]314 (some centres not stated)             Met
5             CCC1(CCC(C)C)C(=O)NC(=O)NC1=O             Met

Is cytochrome c release ratio of CCC(=O)O[C@H]1CCC2C3CCC4=CC(=O)CC[C@]4(C)C3CC[C@@]21C (some centres not stated) strictly below 1?
Met

Field: below-cutoff. Rule: recorded cytochrome c release ratio strictly less than 1. Subject: O=[N+]([O-])c1cc([As](=O)(O)O)ccc1O
Not met

Consider C[C@H](N)[C@H](O)c1ccc(O)c(O)c1 . Does its cytochrome c release ratio lie strictly below 1?
Met

# check: cytochrome c release ratio < 1 for CC[C@@H]1[C@@H](O)N2C3C[C@H]1C1C(O)[C@]4(C[C@@H]12)c1ccccc1N(C)[C@@H]34 (some centres not stated)
Met

Record COc1ccc(C[C@H]2NC[C@H](O)[C@H]2OC(C)=O)cc1 : is its cytochrome c release ratio strictly below 1?
Met
